For each record, write down the corresponding EC50.
System: SARS-CoV-2
Test: microbe, parasite or virus in culture
Assay type: cell-based
Conditions: read-out: HeLa-ACE2 TOA CoV-2 EC50 GeoMean

Query: // lookup EC50 for Cc1cccc(/C=N/Nc2cc(N3CCOCC3)nc(OCCc3ccccn3)n2)c1 [Apilimod]
Result: > 9.61 µM

Query: // lookup EC50 for CN(C)CC1=C[CH]([Fe][CH]2C=CC=C2)C=C1CNc1ccnc2cc(Cl)ccc12 (stereo not drawn) [Ferroquine]
Result: > 9.59 µM

Query: // lookup EC50 for Cc1cccc(/C=N/Nc2cc(N3CCOCC3)nc(OCCc3ccccn3)n2)c1 [Apilimod - control]
Result: > 2.4 µM
